System: PC3 cells
test_details: EB1 Comet (microtubule disruption) assay
Assay type: cell-based, human
assay_context: Homo sapiens, PC-3, 1 h, 1 hour treatment, read-out: EB1 pLAC (converted)
Description: The Eb1 Comet assay relies on the detection of the Eb1 protein at the plus end of polymerizing microtubules (Mimori-Kiyosue, 2000) using indirect immunofluorescence. […] Briefly, human prostate cancer PC3 cells obtained from the American Type Culture Collection were grown in 96-well plates (Greiner, cat. no. 655090) in HAM's F12 medium as recommended by the provider (ATCC). […] Compound dependent microtubule disruption was visually determined by the disappearance in Eb1 foci. […]
Entries and their minimal effective concentration values follow.
measurement_kind: minimal effective concentration (µM)

CCc1cc2ccc(C(C)(C#N)Cc3cnc(OC)nc3OC)cc2[nH]c1=O (centres unmarked) [Compound 357]    0.316
CCc1cc2ccc(C(C)(C#N)Cc3cc(F)cc(C#N)c3)cc2[nH]c1=O (centres unmarked) [Compound 266]    0.316
CCc1cc2ccc(C(C)(C#N)Cc3cccc(C(=O)OC)c3)cc2[nH]c1=O (centres unmarked) [Compound 12]    0.0316
CCc1cc2ccc(C(C#N)(Cc3ccccc3)C(C)C)cc2[nH]c1=O (centres unmarked) [Compound 30]    3.16
CCOc1ccccc1OCCC(C)(C#N)c1ccc2cc(CC)c(=O)[nH]c2c1 (centres unmarked) [Compound 142]    1
CCc1cc2ccc(C(C)(C#N)Cc3cccc(CN)n3)cc2[nH]c1=O (centres unmarked) [Compound 221]    3.16
CCc1cc2ccc(C(C)(C#N)Cc3nc(Cl)cc(OCCOC)n3)cc2[nH]c1=O (centres unmarked) [Compound 370]    1
CCc1cc2ccc(C(C)(C#N)Cc3cccc(S(C)(=O)=O)c3)cc2[nH]c1=O (centres unmarked) [Compound 129]    1
CCc1cc2ccc(C(C)(C#N)Cc3cc(OC)cc(OC)n3)cc2[nH]c1=O (centres unmarked) [Compound 232]    0.1
CCc1cc2ccc([C@](C)(C#N)Cc3cc(F)cc(F)c3)cc2[nH]c1=O [Compound 333]    10
Cc1cc2ccc(C(C)(C#N)Cc3cccc(C#CC(C)(C)O)n3)cc2[nH]c1=O (centres unmarked) [Compound 401]    3.16
CCc1cc2ccc(C(C#N)(CC)Cc3ccccc3)cc2[nH]c1=O (centres unmarked) [Compound 32]    1
CCc1cc2ccc(C(C)(C#N)CCOc3ccc(Cl)cc3Cl)cc2[nH]c1=O (centres unmarked) [Compound 154]    0.1
CCc1cc2ccc(C(C)(C#N)CN(C)CCc3cn(C)c4ccccc34)cc2[nH]c1=O (centres unmarked) [Compound 303]    10
CCc1cc2ccc(C(C)(C#N)Cc3nnsc3Cl)cc2[nH]c1=O (centres unmarked) [Compound 42]    0.1
CCc1cc2ccc(C(C)(C#N)Cc3ccc4c(c3)nnn4C)cc2[nH]c1=O (centres unmarked) [Compound 123]    3.16

---

Entries and their log10(IC50) values follow.
target_or_test_system: TANK-2 enzyme (Homo sapiens, UniProt Q9H2K2)
Construct: made in house
Sequence (Q9H2K2 whole entry): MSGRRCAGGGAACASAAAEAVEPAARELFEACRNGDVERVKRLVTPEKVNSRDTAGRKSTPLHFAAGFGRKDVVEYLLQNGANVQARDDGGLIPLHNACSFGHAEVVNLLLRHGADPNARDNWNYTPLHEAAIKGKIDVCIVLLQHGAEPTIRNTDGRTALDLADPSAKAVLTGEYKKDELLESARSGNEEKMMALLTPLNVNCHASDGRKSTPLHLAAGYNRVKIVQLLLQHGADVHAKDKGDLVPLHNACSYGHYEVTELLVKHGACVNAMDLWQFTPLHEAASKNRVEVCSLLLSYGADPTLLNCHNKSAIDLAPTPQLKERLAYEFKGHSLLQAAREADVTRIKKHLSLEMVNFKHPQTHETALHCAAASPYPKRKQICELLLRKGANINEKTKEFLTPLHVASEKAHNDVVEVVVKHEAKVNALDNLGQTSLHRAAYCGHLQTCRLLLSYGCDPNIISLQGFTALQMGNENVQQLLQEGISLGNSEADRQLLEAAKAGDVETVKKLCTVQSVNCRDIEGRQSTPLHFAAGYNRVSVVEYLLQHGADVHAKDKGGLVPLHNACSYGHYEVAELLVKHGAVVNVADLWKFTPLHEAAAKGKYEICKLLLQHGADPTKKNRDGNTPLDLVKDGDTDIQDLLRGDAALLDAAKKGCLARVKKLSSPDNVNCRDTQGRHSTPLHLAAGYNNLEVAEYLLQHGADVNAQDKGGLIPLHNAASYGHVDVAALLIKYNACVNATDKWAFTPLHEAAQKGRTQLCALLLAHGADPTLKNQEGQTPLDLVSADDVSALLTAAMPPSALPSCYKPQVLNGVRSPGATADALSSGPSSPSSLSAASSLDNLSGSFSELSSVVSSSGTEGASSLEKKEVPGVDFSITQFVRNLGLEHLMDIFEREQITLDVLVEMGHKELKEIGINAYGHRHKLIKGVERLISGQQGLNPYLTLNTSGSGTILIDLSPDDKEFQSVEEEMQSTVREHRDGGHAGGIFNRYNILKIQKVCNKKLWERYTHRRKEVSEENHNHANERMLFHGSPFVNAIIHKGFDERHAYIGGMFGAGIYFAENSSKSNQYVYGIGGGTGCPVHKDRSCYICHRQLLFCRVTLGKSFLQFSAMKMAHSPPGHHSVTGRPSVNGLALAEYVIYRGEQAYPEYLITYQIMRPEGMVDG
test_details: In vitro Scintillation Proximity Assay (SPA) for TANK-2 inhibitory activity
Format: biochemical
assay_context: read-out: in vitro SPA assay TANK-2 pIC50 (converted)
measurement_kind: log10(IC50) (log10 of the value in nM)

CCc1cc2ccc([C@](C)(C#N)[C@H](C)c3ccccc3)cc2[nH]c1=O    3.10
CCc1cc2ccc([C@](C)(C#N)C[C@H]3CCc4ccccc4O3)cc2[nH]c1=O (single isomer, unassigned)    2.20
Cc1cc2ccc(C(C)(C#N)Cc3cc4ccccc4[nH]3)cc2[nH]c1=O (centres unmarked)    2.90
Cc1cc2ccc([C@@](C)(C#N)[C@H]3CCc4ccc(Br)cc43)cc2[nH]c1=O    3.70
CCc1cc2ccc(C(C)(C#N)Cc3ccc4c(c3)OCCO4)cc2[nH]c1=O (centres unmarked)    2.00
CCc1cc2ccc(C(C)(C#N)CCCN(C)C(=O)c3ccc(F)cc3)cc2[nH]c1=O (centres unmarked)    1.30
CCc1cc2ccc(C(C)(C#N)Cc3nccn3CC)cc2[nH]c1=O (centres unmarked)    2.80
CCc1cc2ccc(C(C)(C#N)Cc3nc4ccccc4o3)cc2[nH]c1=O (centres unmarked)    2.00

---

target_or_test_system: Human PARP-1 enzyme (Homo sapiens)
Construct: purchased Trevigen
Sequence (P09874 whole entry): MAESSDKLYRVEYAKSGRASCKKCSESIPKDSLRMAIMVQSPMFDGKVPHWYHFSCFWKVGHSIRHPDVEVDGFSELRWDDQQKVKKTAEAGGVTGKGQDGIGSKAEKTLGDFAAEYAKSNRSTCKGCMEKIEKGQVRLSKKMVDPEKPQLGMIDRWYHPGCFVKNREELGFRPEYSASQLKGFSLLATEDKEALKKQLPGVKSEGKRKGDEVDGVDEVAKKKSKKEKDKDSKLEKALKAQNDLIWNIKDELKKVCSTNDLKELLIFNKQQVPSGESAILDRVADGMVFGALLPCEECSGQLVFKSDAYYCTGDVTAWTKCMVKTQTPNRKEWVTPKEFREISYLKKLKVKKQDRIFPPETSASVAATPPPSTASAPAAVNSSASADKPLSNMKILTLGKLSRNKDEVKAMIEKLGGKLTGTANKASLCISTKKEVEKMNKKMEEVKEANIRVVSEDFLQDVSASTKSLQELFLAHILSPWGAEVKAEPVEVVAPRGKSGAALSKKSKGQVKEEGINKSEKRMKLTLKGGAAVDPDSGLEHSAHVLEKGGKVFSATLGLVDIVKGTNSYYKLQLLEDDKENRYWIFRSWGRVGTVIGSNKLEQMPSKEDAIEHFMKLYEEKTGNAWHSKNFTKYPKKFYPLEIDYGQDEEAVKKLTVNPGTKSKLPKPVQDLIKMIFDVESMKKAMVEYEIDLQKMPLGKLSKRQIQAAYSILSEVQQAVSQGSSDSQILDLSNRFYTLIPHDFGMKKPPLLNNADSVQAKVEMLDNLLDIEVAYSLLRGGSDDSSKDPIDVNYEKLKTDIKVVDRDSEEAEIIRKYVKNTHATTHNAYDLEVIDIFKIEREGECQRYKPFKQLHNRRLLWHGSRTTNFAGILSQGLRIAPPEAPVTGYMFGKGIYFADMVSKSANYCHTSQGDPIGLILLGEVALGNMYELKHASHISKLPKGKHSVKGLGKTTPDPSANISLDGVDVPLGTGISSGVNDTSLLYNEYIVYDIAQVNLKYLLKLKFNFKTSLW
test_details: In vitro Scintillation Proximity Assay (SPA) for PARP-1 inhibitory activity
Assay type: biochemical
assay_context: read-out: in vitro SPA assay PARP-1 pIC50 (converted)
Cut-off 400 nM on IC50: below means yes (1), at or above means no (0).

Cc1cc2ccc([C@](C)(C#N)[C@@H]3CCc4ccc(Br)cc43)cc2[nH]c1=O [Compound 406]    yes (1)
CCc1cc2ccc(C(C)(C#N)Cc3cc(OC)c(OC)c(OC)c3)cc2[nH]c1=O (stereo not shown) [Compound 289]    yes (1)
CCc1cc2ccc(C(C)(C#N)CCOc3ccccc3)cc2[nH]c1=O (stereo not shown) [Compound 145]    yes (1)
CCc1cc2ccc(C(C)(C#N)Cc3cccc(/C=N/O)c3)cc2[nH]c1=O (stereo not shown) [Compound 299]    yes (1)
CCCC(C#N)(Cc1ccccc1)c1ccc2cc(CC)c(=O)[nH]c2c1 (stereo not shown) [Compound 31]    no (0)
CCc1cc2ccc(C(C)(C#N)Cc3cnc(OC)nc3OC)cc2[nH]c1=O (stereo not shown) [Compound 357]    yes (1)
CCc1cc2ccc(C(C)(C#N)Cc3nc4ccccc4o3)cc2[nH]c1=O (stereo not shown) [Compound 85]    yes (1)
CCc1cc2ccc(C(C)(C#N)Cc3cccc(CNCCN4CCOCC4)c3)cc2[nH]c1=O (stereo not shown) [Compound 61]    no (0)
Cc1cc2ccc([C@@](C)(C#N)[C@@H]3CCc4cc(Br)ccc43)cc2[nH]c1=O [Compound 240]    yes (1)
CCc1cc2ccc(C(C)(C#N)Cc3cccc(N)c3)cc2[nH]c1=O (stereo not shown) [Compound 15]    yes (1)
Cc1cc2ccc(C(C)(C#N)Cc3cccc(C#N)c3)cc2[nH]c1=O (stereo not shown) [Compound 34]    no (0)
CCc1cc2ccc(C(C)(C#N)CCOc3ccccc3C#N)cc2[nH]c1=O (stereo not shown) [Compound 276]    yes (1)
CCc1cc2ccc(C(C)(C#N)CC3CN(C)c4ccccc4O3)cc2[nH]c1=O (stereo not shown) [Compound 156]    yes (1)
CCc1cc2ccc(C(C)(C#N)Cc3cccc(Cl)n3)cc2[nH]c1=O (stereo not shown) [Compound 310]    yes (1)
CCc1cc2ccc(C(C)(C#N)CCOc3ccccc3F)cc2[nH]c1=O (stereo not shown) [Compound 278]    yes (1)
Cc1cc2ccc([C@@](C)(C#N)[C@@H]3CCCc4ccccc43)cc2[nH]c1=O [Compound 382]    no (0)
CCc1cc2ccc(C(C)(C#N)Cc3cccc(Cl)c3F)cc2[nH]c1=O (stereo not shown) [Compound 130]    no (0)
CCc1cc2ccc(C(C)(C#N)Cc3cccc(CO)c3)cc2[nH]c1=O (stereo not shown) [Compound 9]    yes (1)
CCc1cc2ccc(C(C#N)(CCOc3ccccc3)C3CC3)cc2[nH]c1=O (stereo not shown) [Compound 166]    no (0)
CCc1cc2ccc(C(C)(C#N)Cc3cccc(OCC4CC4)c3)cc2[nH]c1=O (stereo not shown) [Compound 67]    no (0)
CCc1cc2ccc(C(C)(C#N)Cc3cc(Cl)nc(OC)c3)cc2[nH]c1=O (stereo not shown) [Compound 351]    yes (1)
CCc1cc2ccc([C@](C)(C#N)Cc3cc(OC)nc(C)n3)cc2[nH]c1=O (single isomer, unassigned) [Compound 362]    no (0)
CCc1cc2ccc(C(C)(C#N)Cc3cc(OC)cc(OC)c3)cc2[nH]c1=O (stereo not shown) [Compound 332]    yes (1)
Cc1cc2ccc(C(C)(C#N)Cc3ccc(C(F)(F)F)o3)cc2[nH]c1=O (stereo not shown) [Compound 73]    no (0)
CCc1cc2ccc(C(C)(C#N)Cc3cccc(F)n3)cc2[nH]c1=O (stereo not shown) [Compound 331]    yes (1)
CCc1cc2ccc(C(C)(C#N)Cc3cccc(C(F)(F)F)c3)cc2[nH]c1=O (stereo not shown) [Compound 109]    no (0)
CCc1cc2ccc(C(C)(C#N)Cc3cc(Cl)nc(N(C)C)c3)cc2[nH]c1=O (stereo not shown) [Compound 323]    yes (1)
CCc1cc2ccc(C(C)(C#N)Cc3cc4ccccc4nn3)cc2[nH]c1=O (stereo not shown) [Compound 238]    yes (1)
CCc1cc2ccc(C(C)(C#N)Cc3cccc(Br)c3C)cc2[nH]c1=O (stereo not shown) [Compound 81]    no (0)
Cc1cc2ccc(C(C)(C#N)Cc3cccc(/C=C/CCO)c3)cc2[nH]c1=O (stereo not shown) [Compound 409]    yes (1)
Cc1cc2ccc([C@@](C)(C#N)[C@H]3CCc4cc(Br)ccc43)cc2[nH]c1=O [Compound 241]    yes (1)
